Data origin: PubChem BioAssay AID2013

# system under test: G-protein coupled receptor 55 (Homo sapiens)
# test method notes: GPR55 antagonists blocking LPI-driven arrestin recruitment, primary screen, imaging, U2OS, beta-arrestin-GFP, LPI agonist (AID 2013);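 also: U2OS cells stably carrying GPR55 and arrestin-GFP stimulated by 5 µM LPI near EC80; imaged beta-arrestin-GFP aggregate spots per cell after agonist stimulation; plate controls were LPI-stimulated DMSO wells for no effect and DMSO wells without LPI for full effect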
# cond: U2OS GPR55 beta-arrestin-GFP translocation imaging, LPI antagonism; at 10 µM; hits give high values
Screen size: about 290,000 compounds; about 370 (0.13%) were called active. What follows is part of a selection rich in actives, with near analogues and random picks from the rest. Entries with a potency or affinity are not part of this list.
property name: inhibition (%)
Give just the number in %; leave the unit off.

The recorded inhibition with G-protein coupled receptor 55 (Homo sapiens) for COc1ccc(C(=O)Nc2ccc(/C(C)=N/NC(=O)c3ccncc3)cc2)cc1 was 10.6

The recorded inhibition with G-protein coupled receptor 55 (Homo sapiens) for O=C(NCCCn1ccnc1)c1cc(C2CC2)on1 was -6.4

The recorded inhibition with G-protein coupled receptor 55 (Homo sapiens) for CCCCC1(CC(=O)OC)C(=O)N(c2ccccc2)N(c2ccccc2)C1=O was -3.2

The recorded inhibition with G-protein coupled receptor 55 (Homo sapiens) for COc1ccc(/C=C/c2nc3ccccc3n2C)cc1 was -8.1

The recorded inhibition with G-protein coupled receptor 55 (Homo sapiens) for COc1ccc(-n2cnnc2SCC(=O)Nc2ccc(C(N)=O)cc2)cc1 was -2.8

The recorded inhibition with G-protein coupled receptor 55 (Homo sapiens) for COc1ccc(C)cc1NC(=O)c1ccc(OC(F)F)cc1 was 3.1

###

# system under test: G-protein coupled receptor 55 (Homo sapiens)
# test method notes: GPR55 antagonists blocking LPI-driven arrestin recruitment, primary screen, imaging, U2OS, beta-arrestin-GFP, LPI agonist (AID 2013);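 also: U2OS cells stably carrying GPR55 and arrestin-GFP stimulated by 5 µM LPI near EC80; imaged beta-arrestin-GFP aggregate spots per cell after agonist stimulation; plate controls were LPI-stimulated DMSO wells for no effect and DMSO wells without LPI for full effect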
# cond: U2OS GPR55 beta-arrestin-GFP translocation imaging, LPI antagonism; at 10 µM; hits give high values
The whole screen tested about 290,000 compounds, of which about 370 (0.13%) were called active. The entries come from a sample that favours actives as a whole. Measured potencies and affinities stand elsewhere.
property name: inhibition (%)
Give just the number in %; leave the unit off.

The molecule listed as O=C(/C=C/c1cccc(Br)c1)NCC1CCCCC1 has a reported inhibition of -3.3

The molecule listed as CN(C)CCNC(=O)COc1ccc(C23CC4CC(CC(C4)C2)C3)cc1 has a reported inhibition of 33.6

The molecule listed as COC(=O)c1sc(NC(=O)c2c(F)cccc2F)c(C#N)c1C has a reported inhibition of -4.7

The molecule listed as COc1ccc(C(=O)NNC(=O)c2cccc(F)c2)cc1 has a reported inhibition of -5.9

The molecule listed as Cc1ccc(CC(=O)N2CCN(c3ccccn3)CC2)cc1 has a reported inhibition of 1.5

The molecule listed as COC(=O)c1ccc(C#Cc2ccccc2)o1 has a reported inhibition of -12.1

The molecule listed as COc1cc(CNCCO)cc(Cl)c1OCc1ccccc1Cl has a reported inhibition of 14.7

The molecule listed as CCOc1cc(CNCCO)cc(Br)c1OCc1ccc(Cl)cc1Cl has a reported inhibition of 11.8

The molecule listed as COC(=O)c1c(-c2ccccc2)csc1N has a reported inhibition of 1.1

The molecule listed as C=CCNC(=O)c1ccc([N+](=O)[O-])c(Cl)c1 has a reported inhibition of -0.3

The molecule listed as Cc1ccc(NC(=O)Nc2cc(Cl)ccc2C2COC(=O)C2=N)cc1 (configuration not stated) has a reported inhibition of 7.5

The molecule listed as COC(=O)C1=C(N)Oc2c(oc(CO)cc2=O)C1c1ccc(F)cc1 (configuration not stated) has a reported inhibition of 6
